Biological target: CDK4 (Homo sapiens, UniProt P11802)
Sequence (P11802 whole entry): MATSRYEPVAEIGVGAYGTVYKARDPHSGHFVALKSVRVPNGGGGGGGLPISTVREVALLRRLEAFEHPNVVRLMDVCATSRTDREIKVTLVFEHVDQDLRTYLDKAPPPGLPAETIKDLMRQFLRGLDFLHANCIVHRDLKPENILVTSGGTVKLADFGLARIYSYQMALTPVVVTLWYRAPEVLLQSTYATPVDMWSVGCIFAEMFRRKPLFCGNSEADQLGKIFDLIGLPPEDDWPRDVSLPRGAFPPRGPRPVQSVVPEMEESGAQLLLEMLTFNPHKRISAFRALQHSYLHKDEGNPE
Sequence (P24385 whole entry partner): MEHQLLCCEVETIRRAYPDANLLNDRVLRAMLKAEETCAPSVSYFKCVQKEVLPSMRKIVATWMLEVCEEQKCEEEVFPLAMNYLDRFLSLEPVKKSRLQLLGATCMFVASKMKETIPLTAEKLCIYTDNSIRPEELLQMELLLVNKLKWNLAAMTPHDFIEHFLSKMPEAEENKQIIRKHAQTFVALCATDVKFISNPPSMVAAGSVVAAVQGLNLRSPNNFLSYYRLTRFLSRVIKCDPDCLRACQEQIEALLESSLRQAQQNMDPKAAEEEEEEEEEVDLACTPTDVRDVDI
Experiment: In vitro kinase inhibition IC50, luminescence (ADP Glo), retinoblastoma substrate
Conditions: read-out: CDK4/D1 IC50
Procedure: IC50 values of compounds against CDK4 and CDK6 were determined by luminescence using retinoblastoma as substrate. […] Readings were taken at 15 min and 45 min incubation after detection reagent was added in a Synergy Neo Plate reader (BioTek, Winooski, Vt.) at single excitation of 340 nm and Dual emission at 495 nm and 520 nm respectively. […]
pIC50: −log10 of the molar value.
Reported Endpoint: pIC50

N#Cc1cc2cnc(Nc3ccc(N4CCNCC4)cc3)nc2n(C2CCc3ccccc32)c1=O (centres unmarked)    7.24
COCCS(=O)(=O)N1CCC(Nc2ncc3cc(C#N)c(=O)n(C4CCCC4)c3n2)CC1    8.30
CN1CCN(c2ccc(Nc3ncc4cc(C#N)c(=O)n(Cc5ccccc5)c4n3)cc2)CC1    9.00

I: N#Cc1cc2cnc(Nc3ccc4c(c3)CNCC4)nc2n(C2CCCC2)c1=O
II: N#Cc1cc2cnc(Nc3ccn(C4CCNCC4)c(=O)c3)nc2n(C2CCCC2)c1=O
III: CC1(C)NCCc2cc(Nc3ncc4cc(C#N)c(=O)n(C5CCCC5)c4n3)ccc21
Order by pIC50, ascending. # output: labels, in the requested order
II, III, I
